Tested on: Candida albicans
test.name: Antifungal activity against Candida albicans MTCC 227 at 30 ug/ml after 48 hrs by cup-plate method
Format: functional
conditions.used: MTCC 227, 48 h, read-out: DIZ
value.type: zone of inhibition at 30 µg/mL (mm)
Number in mm, nothing else.

The examples below pair each entry with its known result.
Item COc1ccc(/C=N/n2c(S)nnc2CCNc2nc3ccccc3s2)cc1OC has what recorded zone of inhibition at 30 µg/mL? 22

Another: CN(C)c1ccc(/C=N/n2c(S)nnc2CCNc2nc3ccccc3s2)cc1 16

Next compound: Sc1nnc(CCNc2nc3ccccc3s2)n1/N=C/c1ccccc1 22

Others:
Form field: reported zone of inhibition at 30 µg/mL of Oc1ccc(/C=N/n2c(S)nnc2CCNc2nc3ccccc3s2)cc1 22

Can you handle OC(Cn1cncn1)(Cn1cncn1)c1ccc(F)cc1F next? 22

And for O=[N+]([O-])c1cccc(/C=N/n2c(S)nnc2CCNc2nc3ccccc3s2)c1 ? 10

One more compound: Sc1nnc(CCNc2nc3ccccc3s2)n1/N=C/c1ccccc1Cl 22

----------
Tested on: Streptomyces griseus
test.name: Antibacterial activity against Streptomyces griseus MTCC 1540 after 24 hrs
Type: functional
conditions.used: MTCC 1540, 24 h
Here the recorded MIC is given for each entry.
Answer with a number only, understood to be in µg/mL.

Guide cases for MIC, answers given:
Need MIC, item O=[N+]([O-])c1cccc(/C=N/n2c(S)nnc2CCNc2nc3ccccc3s2)c1 200

Another: O=[N+]([O-])c1ccccc1/C=N/n1c(S)nnc1CCNc1nc2ccccc2s1 200

Here is another molecule to look at.
Reported MIC for Sc1nnc(CCNc2nc3ccccc3s2)n1/N=C/c1ccccc1Cl : what is it? 200

----------
System: Bacillus subtilis
test.name: Antibacterial activity against Bacillus subtilis MTCC 441 at 10 ug/ml after 24 hrs by cup-plate method relative to ciprofloxacin
Type: functional, organism-based
Calls of active or inactive are those of the source. The calls are words filed in the database; no cut-off is given here.
Select the correct class. Options are yes (1) = active, no (0) = inactive and nothing else.

Short answer needed: outcome of this test for Oc1ccc(/C=N/n2c(S)nnc2CCNc2nc3ccccc3s2)cc1 ? no (0)

Try this molecule too: CN(C)c1ccc(/C=N/n2c(S)nnc2CCNc2nc3ccccc3s2)cc1 no (0)

Another: O=[N+]([O-])c1ccccc1/C=N/n1c(S)nnc1CCNc1nc2ccccc2s1 no (0)

***
In this assay, the call recorded for Sc1nnc(CCNc2nc3ccccc3s2)n1/N=C/c1ccccc1Cl was what? yes (1)

----------
Tested on: Streptomyces griseus
test.name: Antibacterial activity against Streptomyces griseus MTCC 1540 at 100 ug/ml after 24 hrs by cup-plate method
Assay type: functional, organism-based
Activity calls are given as the source filed them. The rule behind the calls is not given here.
value.type: Activity

Sample answers from the record:
Fill in the blank: the reported Activity of Sc1nnc(CCNc2nc3ccccc3s2)n1/N=C/c1ccccc1 is ____. inactive

Another molecule: Oc1ccc(/C=N/n2c(S)nnc2CCNc2nc3ccccc3s2)cc1 Active

Next entry: O=C(O)c1cn(C2CC2)c2cc(N3CCNCC3)c(F)cc2c1=O [CIPROFLOXACIN] Active

Now give it for Sc1nnc(CCNc2nc3ccccc3s2)n1/N=C/c1ccccc1Cl too. inactive

Entry COc1ccc(/C=N/n2c(S)nnc2CCNc2nc3ccccc3s2)cc1OC please Active

Now for another entry.
# input molecule: CN(C)c1ccc(/C=N/n2c(S)nnc2CCNc2nc3ccccc3s2)cc1 ; wanted: its Activity Active

The reported numbers originate from ChEMBL document CHEMBL1177873.
